- Protocol text: Antibiotic blood levels in mice following intramuscular administration (paper disc-agar diffusion, Escherichia coli NIHJ as assay organism)
- Format: in vivo
- Run conditions: mouse, im, I.M., 20 mg./kg., read-out: Blood level, Peak Concentration
Hi! Just check whether Cmax is below 10000 ng/mL. Below gives t, equal or above gives f.

Reference set, count: 6
O=C([O-])C1=C(C[n+]2cccc(C(=O)O)c2)CSC2C(NC(=O)[C@H](NC(=O)c3cnc4cccnc4c3O)c3ccc(O)c(O)c3)C(=O)N12 (stereo partly drawn) [BB-S608]
t
O=C(O)C=Cc1ccc[n+](CC2=C(C(=O)[O-])N3C(=O)C(NC(=O)[C@H](NC(=O)c4cnc5cccnc5c4O)c4ccc(O)c(O)c4)C3SC2)c1 (stereo partly drawn) [BB-S610]
t
O=C([O-])C1=C(C[n+]2cccc(CCS(=O)(=O)O)c2)CSC2C(NC(=O)[C@H](NC(=O)c3cnc4cccnc4c3O)c3ccc(O)cc3)C(=O)N12 (stereo partly drawn) [BB-S620]
f
O=C(O)Cc1ccc[n+](CC2=C(C(=O)[O-])N3C(=O)C(NC(=O)[C@H](NC(=O)c4cnc5cccnc5c4O)c4ccc(O)c(Cl)c4)C3SC2)c1 (stereo partly drawn) [BB-S604]
f
O=C([O-])C1=C(C[n+]2ccc(C(=O)O)cc2)CSC2C(NC(=O)[C@H](NC(=O)c3cnc4cccnc4c3O)c3ccc(O)cc3)C(=O)N12 (stereo partly drawn) [BB-S584]
f
O=C(O)Cc1ccc[n+](CC2=C(C(=O)[O-])N3C(=O)C(NC(=O)[C@H](NC(=O)c4cnc5cccnc5c4O)c4ccc(O)cc4)C3SC2)c1 (stereo partly drawn) [BB-S580]
f

**Query** Check if Cmax falls below 10000 ng/mL for O=C(O)Cc1cc[n+](CC2=C(C(=O)[O-])N3C(=O)C(NC(=O)[C@H](NC(=O)c4cnc5cccnc5c4O)c4ccc(O)cc4)C3SC2)cc1 (stereo partly drawn) [BB-S591] .
**Result** f

**Query** Check if Cmax falls below 10000 ng/mL for O=C([O-])C1=C(C[n+]2cccc(C(=O)O)c2)CSC2C(NC(=O)[C@H](NC(=O)c3cnc4cccnc4c3O)c3ccsc3)C(=O)N12 (stereo partly drawn) [BB-S624] .
**Result** t

**Query** Check if Cmax falls below 10000 ng/mL for O=C([O-])C1=C(C[n+]2cccc(C(=O)O)c2)CSC2C(NC(=O)[C@H](NC(=O)c3cnc4cccnc4c3O)c3ccc(O)cc3)C(=O)N12 (stereo partly drawn) [BB-S579] .
**Result** f

---

- Protocol text: Antibiotic blood levels in mice following intramuscular administration (paper disc-agar diffusion, Escherichia coli NIHJ as assay organism)
- Format: in vivo
- Run conditions: mouse, im, I.M., 20 mg./kg., read-out: Blood level, Peak Concentration
- Description: Antibiotic blood levels were determined in mice following intramuscular administration of the test compounds at 20 mg./kg. The blood samples were collected from the orbital sinuses into heparinized capillary tubes at 15, 30, 60 and 120 minutes after administration. The antibiotic concentration was determined by the paper disc-agar diffusion method using Escherichia coli NIHJ as the assay organism.
Cmax listing for selected compounds.
Give just the number in ng/mL; leave the unit off.

Below: 5 compounds and their reported Cmax.
O=C([O-])C1=C(C[n+]2ccc(CCS(=O)(=O)O)cc2)CSC2C(NC(=O)[C@H](NC(=O)c3cnc4cccnc4c3O)c3ccc(O)c(Cl)c3)C(=O)N12 (stereo partly drawn)
9400
O=C([O-])C1=C(C[n+]2cccc(S(=O)(=O)O)c2)CSC2C(NC(=O)[C@H](NC(=O)c3cnc4cccnc4c3O)c3ccc(O)cc3)C(=O)N12 (stereo partly drawn)
3000
O=C(O)CSc1cc[n+](CC2=C(C(=O)[O-])N3C(=O)C(NC(=O)[C@H](NC(=O)c4cnc5cccnc5c4O)c4ccc(O)cc4)C3SC2)cc1 (stereo partly drawn)
7800
O=C(O)C=Cc1ccc[n+](CC2=C(C(=O)[O-])N3C(=O)C(NC(=O)[C@H](NC(=O)c4cnc5cccnc5c4O)c4ccc(O)c(Cl)c4)C3SC2)c1 (stereo partly drawn)
8000
O=C([O-])C1=C(C[n+]2cccc(S(=O)(=O)O)c2)CSC2C(NC(=O)[C@H](NC(=O)c3cnc4cccnc4c3O)c3ccsc3)C(=O)N12 (stereo partly drawn)
10000

For this compound ( O=C([O-])C1=C(C[n+]2cccc(C(=O)O)c2)CSC2C(NC(=O)[C@H](NC(=O)c3cnc4cccnc4c3O)c3ccc(O)c(Cl)c3)C(=O)N12 (stereo partly drawn) ), measured Cmax is 6200

For this compound ( O=C([O-])C1=C(C[n+]2ccccc2C(=O)O)CSC2C(NC(=O)[C@H](NC(=O)c3cnc4cccnc4c3O)c3ccc(O)cc3)C(=O)N12 (stereo partly drawn) ), measured Cmax is 5800
